- Assay method text: Reactive extraction of 3-HP from clarified fermentation broth into tertiary amine non-polar phase with co-solvents
- Type: physicochemical
- Measurement context: sample 2: Tripentylamine with Butanol
Readout label: % 3-HP extracted (%)

Compound: O=C(O)CCO [3-HP, 3-hydroxypropionic acid]
Observed value: 58

* * *

- Assay method text: Reactive extraction of 3-HP from clarified fermentation broth into tertiary amine non-polar phase with co-solvents
- Assay type: physicochemical
- Measurement context: sample 5: Tripentylamine with Methyl tert-butyl ether

Compound: O=C(O)CCO [3-HP, 3-hydroxypropionic acid]
% 3-HP extracted / %: 38

* * *

- System: Yeast strains (S288C background)
- Assay method text: microbe, parasite or virus in culture
- Type: cell-based, Saccharomyces cerevisiae
- Measurement context: 3-HP MIC with named supplement(s) vs S288C in SD without supplement, aerobic
- Method: The minimum inhibitory concentration (MIC) was determined aerobically in a 96 well-plate format. […] Media supplements were added according to levels reported in the Supplements Table, where specified. Overnight cultures of strains were grown in triplicate in 5 mL SD media with vitamins (Methods in Enzymology vol. 350, page 17 (2002)). A 1% (v/v) inoculum was introduced into a 5 ml culture of SD minimal media without vitamins. […]
Just a reminder that ties go to criterion not met: only % Increase Over Control strictly below 30% counts as criterion met.

Compound: CCC(=O)C(=O)O [2-oxobutyrate (B)]
Test target: Yeast strains (S288C background)
Assigned category: criterion met

Compound: N[C@@H](CC(=O)O)C(=O)O [Aspartate]
Test target: Yeast strains (S288C background)
Assigned category: criterion met

Compound: N[C@@H](Cc1c[nH]c2ccccc12)C(=O)O
Test target: Yeast strains (S288C background)
Assigned category: criterion met

Compound: O=C(O)C1=C[C@@H](O)[C@@H](O)[C@H](O)C1 [Shikimate (A)]
Test target: Yeast strains (S288C background)
Assigned category: criterion not met

Compound: NCC(=O)O
Test target: Yeast strains (S288C background)
Assigned category: criterion met

Compound: NC(=O)NCCC[C@H](N)C(=O)O
Test target: Yeast strains (S288C background)
Assigned category: criterion met

* * *

- Assay method text: Reactive extraction of 3-HP from clarified fermentation broth into tertiary amine non-polar phase with co-solvents
- Assay type: physicochemical
- Measurement context: sample 3: Tripentylamine with p-Xylene

Molecule: O=C(O)CCO [3-HP, 3-hydroxypropionic acid]
% 3-HP extracted, %: 24

* * *

- Assay method text: Reactive extraction of 3-HP from clarified fermentation broth into tertiary amine non-polar phase with co-solvents
- Assay type: physicochemical
- Measurement context: sample 4: Tripentylamine with Methyl ethyl ketone

Compound: O=C(O)CCO [3-HP, 3-hydroxypropionic acid]
% 3-HP raffinate / %: 33

* * *

- Tested on: E. coli
- Assay method text: microbe, parasite or virus in culture
- Type: cell-based
- Measurement context: MIC of 3-HP for strain BW25113, M9 media with the named supplement(s), aerobic, 24-hour MIC evaluation
Reported average MIC Assay Result (g/L 3-HP) values for a set of molecules
Readout label: average MIC Assay Result (g/L 3-HP)

Molecule: NC(=O)CC[C@H](N)C(=O)O [Glutamine (C)]
Test target: E. coli
Output unit: g/L 3-HP
Observed value: 30
//
Molecule: O=C(O)O [Bicarbonate (C)]
Test target: E. coli
Output unit: g/L 3-HP
Observed value: 44
//
Molecule: NCCCC[C@H](N)C(=O)O [Lysine (D)]
Test target: E. coli
Output unit: g/L 3-HP
Observed value: 37
//
Molecule: Nc1ccc(C(=O)O)cc1 [p-aminobenzoate (A)]
Test target: E. coli
Output unit: g/L 3-HP
Observed value: 35
//
Molecule: NC(=O)NCCC[C@H](N)C(=O)O [Citrulline (C)]
Test target: E. coli
Output unit: g/L 3-HP
Observed value: 30
//
Molecule: C[C@@H](O)[C@H](N)C(=O)O [Threonine (B)]
Test target: E. coli
Output unit: g/L 3-HP
Observed value: 32
//
Molecule: O=C(O)C1=C[C@@H](O)[C@@H](O)[C@H](O)C1 [Shikimate (A)]
Test target: E. coli
Output unit: g/L 3-HP
Observed value: 28
//
Molecule: N[C@@H](CO)C(=O)O [Serine (B)]
Test target: E. coli
Output unit: g/L 3-HP
Observed value: 32
//
Molecule: CC[C@H](C)[C@H](N)C(=O)O [Isoleucine (B)]
Test target: E. coli
Output unit: g/L 3-HP
Observed value: 32
//
Molecule: N[C@@H](Cc1ccccc1)C(=O)O [Phenylalanine (A)]
Test target: E. coli
Output unit: g/L 3-HP
Observed value: 32
//
Molecule: N[C@@H](CCO)C(=O)O [Homoserine (B)]
Test target: E. coli
Output unit: g/L 3-HP
Observed value: 35
//
Molecule: NCCCCNCCCN [Spermidine (C)]
Test target: E. coli
Output unit: g/L 3-HP
Observed value: 40

* * *

Reported % Increase Over Control values for a set of compounds
- System: E. coli
- Assay method text: microbe, parasite or virus in culture
- Assay type: cell-based
- Measurement context: increase of 3-HP MIC over BW25113 in M9 without supplements; M9 media with the named supplement(s), aerobic
- Protocol: For MIC evaluations, the final results are expressed in chemical agent concentrations determined by analysis of the stock solution by HPLC (i.e., see Subsection IIIb). The minimum inhibitory concentration (MIC) was determined aerobically in a 96 well-plate format. […] Media supplements were added according to levels reported in the Supplements Table, where specified. Overnight cultures of strains were grown in triplicate in 5 mL LB (with antibiotic where appropriate). […]

Compound: NCCCC[C@H](N)C(=O)O
% Increase Over Control: 33%
//
Compound: CC[C@H](C)[C@H](N)C(=O)O
% Increase Over Control: 17%
//
Compound: NC(=O)CC[C@H](N)C(=O)O
% Increase Over Control: 9%
//
Compound: N[C@@H](Cc1ccccc1)C(=O)O
% Increase Over Control: 17%
//
Compound: NC(=O)NCCC[C@H](N)C(=O)O
% Increase Over Control: 9%
//
Compound: NC(CCS)C(=O)O (stereo not drawn)
% Increase Over Control: 9%
